Field: OD, binding to heparanase (Cyno). Provide a value for each of the binders that follow.
assayed.target: T1, cynomolgus heparanase (cynomolgus, UniProt A0A2K5UQU0 87-593)
T1 construct: also called recombinant cynomolgus heparanase
T1 sequence: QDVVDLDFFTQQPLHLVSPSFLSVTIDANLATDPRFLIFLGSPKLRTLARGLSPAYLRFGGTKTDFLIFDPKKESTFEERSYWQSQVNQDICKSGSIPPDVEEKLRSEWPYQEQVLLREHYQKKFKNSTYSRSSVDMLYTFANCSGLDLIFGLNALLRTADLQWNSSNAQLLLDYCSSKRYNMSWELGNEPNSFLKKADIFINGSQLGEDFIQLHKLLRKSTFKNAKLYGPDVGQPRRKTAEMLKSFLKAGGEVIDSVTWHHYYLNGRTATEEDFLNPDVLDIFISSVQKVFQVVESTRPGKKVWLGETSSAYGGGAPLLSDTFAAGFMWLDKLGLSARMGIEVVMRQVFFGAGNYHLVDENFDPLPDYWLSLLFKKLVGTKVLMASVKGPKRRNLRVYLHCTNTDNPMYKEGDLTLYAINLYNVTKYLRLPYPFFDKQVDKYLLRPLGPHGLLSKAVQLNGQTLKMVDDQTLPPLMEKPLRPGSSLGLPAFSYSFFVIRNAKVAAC
test.protocol: cross species capture ELISA, heparanase captured by rabbit anti-heparanase antibody, exhaustive supernatant 1:5, anti-human IgG Fc detection
Just so you know, I need the unit written after the number.

Below: 3 binders and their reported OD, binding to heparanase (Cyno).
monoclonal antibody 15A11.1 (antibody, V domains shown, Fully human (XenoMouse) antibody; also called ATCC PTA-9490) VH: QVQLVQSGAEVKKPGASVKVSCKVSGDTLTELSMHWVRQTPGKGLEWMGGFDPEDGETIYAQKFQGRVTMTGDTSTDTAYMELSSLRSEDTAVYYCATEGDYGDSEEYYYYYGMDVWGQGTTVTVSS VL: DIQMTQSPSSLSASVGDRVTITCRASQGISNYLAWYQQKPGKVPKLLIYAASTLQSGVPSRFSGSGSGTDFTLTISSLQPEDVATYYCQKYNRAPFTFGPGTKVDIK | 0.14 OD units
monoclonal antibody 7B9.1 (antibody, V domains shown, Fully human (XenoMouse) antibody) VH: QVQLVESGGGVVQPGRSLRLSCAASGFTFSSYGMHWVRQAPGKGLEWVAVIWYDGSNKYYADSVKGRFTISRDNSKNTLYLQMNSLRAEDTAVYYCAREGAPYSSSDAFDIWGQGTMVTVSS VL: QSVLTQPPSVSGAPGQRVTISCTGSSSNIGANYDVHWYQQLPGTAPKLLIYGDNNRPSGVPDRFSGSKSGTSASLAITGLQAEDEADYYCQSYDSSLSGSVFGGGTKLTVL | 1.06 OD units
monoclonal antibody 10E9.1 (antibody, V domains shown, Fully human (XenoMouse) antibody; also called mAb 10E9.1; ATCC PTA-9489) VH: QVQLVQSGAEVKKPGASVKVSCKVSGYSLTELSIHWVRQAPGKGLEWMGGFDPEDGEIIFAQKFQGRVTLTEDISLDTAYMEVSSLRSEDTAVYYCATEGHDSGDYVGYYYYGLDVWGQGTTVTVSS VL: DIQMTQSPSSLSASVGDRVTITCRASQDIRNFLAWYQQKPGKLPKLLIYAASTLQSGVPSRFSGSGSGTDFTLTISSLQPEDVASYYCQSHNSVPFTFGPGTKVDIR | 1.4 OD units

Go through the items and report each one's OD, binding to heparanase (Cyno).
1. monoclonal antibody 16E1.1 (antibody, V domains shown, Fully human (XenoMouse) antibody) VH: QVQLQESGPGLVKPSQTLSLTCTVSGGSISSGGYYWSWIRQHPGKGLEWIGFIYYSGSTFYNPSLKSRITISVDTSKNQFSLKLSSVTAADTAVYYCARPYSSSWYGAFDIWGQGTMVTVSS VL: SYELTQPPSVSVSPGRTASITCSEDKLGNKYAYWYQQKPGQSPVLVIYQDSERPSGIPERFSGSNSGNTATLTISGTQAMDEADYYCQAWDSSTVVFGGGTKLTVL
2. monoclonal antibody 16G1.1 (antibody, V domains shown, Fully human (XenoMouse) antibody) VH: QVQLVESGGGVVQPGRSLRLSCAASGFTFSSYGMHWVRQAPGKGLEWVAVIWYDGSNKYYADSVKGRFTISRDNSKNTLNLQMNSLRAEDTAVYYCGRDPGTYHYYYHGMDVWGQGTTVTVSS VL: YIVMTQSPLSLPVTPGEPASISCRSSQSLLHSNGYNFLDWYLQKPGQSPQLLIYLGSNRASGVPDRFSGSGSGTDFTLKINRVEAEDVGVYYCMQALQTPITFGQGTRLEIK
3. monoclonal antibody 14H12.3 (antibody, V domains shown, Fully human (XenoMouse) antibody) VH: QVQLVESGGGVVQPGRSLRLSCAASGFTFSSYGMHWVRQAPGKGLEWVAVIWYDGSNKDYADSVKGRFTISRDNSKNTLYLQMNSLRAEDTAVYYCAREGSTSWTDYYGMDVWGQGTTVTVSS VL: SYELTQPPSVSVSPGQTARITCSGDALPKRYAYWYQQKSGQALVLVIYEDSKRPSGIPERFSGSSSGTMATLTISGAQVEDEADYYCYSIDSSGNHGVFGGGTKLTVL

OUTPUT:
1.66 OD units
1.64 OD units
0.95 OD units

The measured values listed here are drawn from patent US20100233154A1.
